- Tested on: Caco-2 cells
- runDescription: Caco-2 Bi-directional Permeability
- Type: in vitro ADME
- recordedConditions: apical to basolateral, 2-hr incubation; iminopyrimidinone analog
reportedEndpoint: Caco-2 AP → BL (nm/s) (Iminopyrimidinone)

| compound | system | endpointResult |
| --- | --- | --- |
| Cc1ccc(C(=O)Nc2ccc(F)c([C@]3(C)CC(=O)N(C)C(=N)N3)c2)nc1 [reference compound] | Caco-2 cells | 0 nm/s |
| CN1C(=N)N[C@](C)(c2cc(NC(=O)c3ccc(Cl)cn3)ccc2F)CC1=O [drawing 727, reference compound] | Caco-2 cells | 0 nm/s |
| CN1C(=N)N[C@](C)(c2cc(NC(=O)c3ccc(F)cn3)ccc2F)CC1=O [drawing 731, reference compound] | Caco-2 cells | 22 nm/s |

Origin of values: patent US9029362B2
